Target or test system: Bcl-2 (Homo sapiens, UniProt P10415)
Sequence (P10415 whole entry, looked up): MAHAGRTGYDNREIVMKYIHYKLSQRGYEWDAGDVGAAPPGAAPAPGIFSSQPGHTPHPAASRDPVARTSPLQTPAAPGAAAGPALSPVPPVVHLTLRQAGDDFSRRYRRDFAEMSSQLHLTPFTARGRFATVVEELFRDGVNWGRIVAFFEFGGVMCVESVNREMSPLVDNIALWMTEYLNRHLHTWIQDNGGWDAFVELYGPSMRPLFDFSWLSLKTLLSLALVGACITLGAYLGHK
Assay procedure: Fluorescence polarization-based competitive binding assay (FAM-BID tracer)
Experimental parameters: Table 2; tested up to 20 μM; read-out: Bcl-2 Ki ± SD
Observation type: Ki (µM)
Reply numerically in µM, unit not repeated.

## Input Tell me the measured Ki of Cc1cc(Oc2ccc(Cn3nc(C)c4c(C(=O)O)cc(-c5ccco5)nc43)cc2)cc(C)c1Cl , please.
## Output 1.95

====

Target or test system: Bcl-2 (Homo sapiens)
Assay procedure: Fluorescence polarization-based competitive binding assay (FAM-BID tracer)
Experimental parameters: read-out: Bcl-2 Ki ± SD; Table 2; tested up to 20 μM
Observation type: Ki (µM)
Give just the number in µM; leave the unit off.

## Input # input molecule: Cc1nn(Cc2ccc(Oc3ccccc3)cc2)c2nc(/C=C/c3ccccc3)cc(C(=O)O)c12 ; wanted: its Ki
## Output 3.16
